- SYSTEM: human TREX2 (residues M44-A279) (Homo sapiens)
- Construct: human TREX2 (residues M44-A279, expressed in E. coli); His-Tev (His tag with TEV protease site) (N)
- Sequence (Q9BQ50 whole entry, the tested form may be a part): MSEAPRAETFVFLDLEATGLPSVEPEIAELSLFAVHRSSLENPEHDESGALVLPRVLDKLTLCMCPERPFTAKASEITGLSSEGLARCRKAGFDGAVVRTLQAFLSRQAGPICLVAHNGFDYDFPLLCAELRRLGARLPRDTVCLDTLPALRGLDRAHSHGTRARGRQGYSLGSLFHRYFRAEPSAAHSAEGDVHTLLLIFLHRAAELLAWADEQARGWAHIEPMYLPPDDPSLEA
- MEASUREMENT_PROTOCOL: TREX2 Biochemical Assay (fluorescence assay, degradation of dsDNA substrate)
- EXPERIMENTAL_SETUP: 2.5 nM TREX2, 60 nM dsDNA substrate, 25 minutes at room temperature; read-out: hTREX2 EC50
Kindly supply the reported EC50 values for the records listed here.

Examples with their reported EC50 follow.
| RECORD_SMILES | EC50 |
| --- | --- |
| O=C(c1cccc(F)c1)N(Cc1cccnc1)Cc1c(F)cccc1Cl | 10 to 100 µM |
| COc1cc(Br)cc(C(=O)N(Cc2cccnc2)Cc2cc(Cl)cc(Cl)c2)c1 | > 100 µM |
| O=C(O)c1ccc(CN(Cc2ncc3ccccc3c2Cl)C(=O)c2cc(F)cc(F)c2)cn1 | 1 to 10 µM |
| O=C(O)c1ccc(CN(Cc2cccc(Cl)c2C(F)(F)F)C(=O)c2cc(F)cc(F)c2)cn1 | 10 to 100 µM |
| CC(C)c1ccc(C(=O)N(Cc2cccnc2)Cc2cc(Cl)cc(Cl)c2)cc1 | > 100 µM |

Give me EC50 for each of these compounds, listed below.
1. O=C(c1cc(F)cc(F)c1)N(Cc1cnc2c(=O)[nH]cnc2c1)Cc1ccccc1Cl
2. O=C(c1cc(F)cc(F)c1)N(Cc1cccnc1)[C@@H](CCO)c1ccc(Cl)cc1Cl
3. O=C(c1cc(F)cc(F)c1)N(Cc1ccc(-c2cc(C(F)(F)F)n[nH]2)nc1)Cc1ccccc1Cl
4. NC(=O)c1ccc(CN(Cc2cccc(Cl)c2Cl)C(=O)c2cccc(F)c2)cn1
5. N#CCC[C@@H](c1ccccc1Cl)N(Cc1cccnc1)C(=O)c1cc(F)cc(F)c1

-- reply
10 to 100 µM
10 to 100 µM
> 100 µM
> 100 µM
10 to 100 µM

----------
Kindly supply the reported EC50 values for the records listed here.
- SYSTEM: full length human TREX1 (Homo sapiens)
- Construct: N-terminally His-Tev tagged full length human TREX1; His-Tev (His tag with TEV protease site) (N)
- Sequence (Q9NSU2 1-314): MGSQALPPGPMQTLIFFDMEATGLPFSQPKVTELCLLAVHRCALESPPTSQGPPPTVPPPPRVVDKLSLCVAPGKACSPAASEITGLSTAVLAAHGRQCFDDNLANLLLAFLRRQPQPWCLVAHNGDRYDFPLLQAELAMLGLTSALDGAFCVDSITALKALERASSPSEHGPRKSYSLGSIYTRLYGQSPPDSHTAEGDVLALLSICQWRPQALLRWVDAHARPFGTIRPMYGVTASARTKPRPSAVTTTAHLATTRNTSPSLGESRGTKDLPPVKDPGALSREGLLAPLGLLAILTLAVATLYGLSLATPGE
- MEASUREMENT_PROTOCOL: TREX1 Biochemical Assay (fluorescence assay, degradation of dsDNA substrate)
- EXPERIMENTAL_SETUP: 150 pM TREX1, 60 nM dsDNA substrate, 25 minutes at room temperature; read-out: hTREX1 EC50

Examples with their reported EC50 follow.
| RECORD_SMILES | MEASUREMENT_KIND | MEASURED_RESULT |
| --- | --- | --- |
| CCOc1cccc([C@@H](CC)N(Cc2ccc(C(=O)O)nc2)C(=O)c2cc(F)cc(F)c2)c1Cl | EC50 | < 0.1 µM |
| COc1cc(Br)cc(C(=O)N(Cc2cccnc2)Cc2ccc(Cl)cc2Cl)c1 | EC50 | > 10 µM |
| O=C(Cc1ccccc1)N(Cc1cccnc1)Cc1ccc(Cl)cc1Cl | EC50 | > 10 µM |
| NCC[C@H](c1cccc(Cl)c1Cl)N(Cc1cccnc1)C(=O)c1cc(F)cc(F)c1 | EC50 | > 10 µM |
| O=C(c1cccc(F)c1)N(Cc1cncnc1)Cc1ccc(Cl)cc1Cl | EC50 | 1 to 10 µM |
| O=C(c1cccc(-c2ccccc2)c1)N(Cc1cccnc1)Cc1cc(Cl)cc(Cl)c1 | EC50 | > 10 µM |
| CC[C@@H](c1ccc2c(c1Cl)OCO2)N(Cc1ccc(C(=O)O)nc1)C(=O)c1cc(F)cc(F)c1 | EC50 | < 0.1 µM |

-- ask What measured EC50 goes with O=C(c1cccc(F)c1)N(Cc1ccc(Cl)cc1)Cc1cccnc1 ?
-- reply > 10 µM
